biological target: human GPR40 (Homo sapiens, UniProt O14842); assay: Inositol phosphate accumulation assay (IP1 HTRF) in CHO-K1 cells expressing human GPR40; conditions: 90 min stimulation
Sequence (O14842 whole entry): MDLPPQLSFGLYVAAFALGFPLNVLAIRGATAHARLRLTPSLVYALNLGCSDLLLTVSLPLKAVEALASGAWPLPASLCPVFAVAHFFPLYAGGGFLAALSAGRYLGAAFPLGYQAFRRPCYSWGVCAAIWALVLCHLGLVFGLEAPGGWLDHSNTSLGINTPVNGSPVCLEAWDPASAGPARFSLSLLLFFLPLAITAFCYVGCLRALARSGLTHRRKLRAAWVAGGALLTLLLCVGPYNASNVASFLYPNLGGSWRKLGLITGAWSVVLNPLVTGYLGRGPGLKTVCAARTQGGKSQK
pEC50: −log10 of the molar value.
Kindly supply the reported pEC50 values for the records listed here.

COc1ccc(F)c([C@H]2CC[C@H](COc3cccc(C(CS(=O)(=O)O)C4CC4)c3)CC2)c1 (stereo partly shown)	< 6.00
COc1ccc(F)c([C@H]2CC[C@H](COc3cccc(C(CP(C)(=O)O)C4CC4)c3)CC2)c1 (single isomer, unassigned) [Compound 5]	≥ 7.30
COc1ccc(CCCC(C)(C)C)c(N2CCC(COc3cc([C@@H](CP(C)(=O)O)C4CC4)ccn3)CC2)c1	≥ 7.30

Let us examine a further case.
Query: Data request, read-out pEC50, for COc1ccc(CCCC(C)(C)C)c(N2CCC(COc3cccc(CC(C)P(=O)(O)O)c3)CC2)c1 (stereo not shown)
Reply: < 6.00

Every entry's value here was drawn from patent US20250276989A1.
